compounds and their reported Km
Molecular target: mouse NTPDase8 (Mus musculus)
Construct: expressed in transfected cells; host or cells: COS-7
Sequence (Q8K0L2 1-497): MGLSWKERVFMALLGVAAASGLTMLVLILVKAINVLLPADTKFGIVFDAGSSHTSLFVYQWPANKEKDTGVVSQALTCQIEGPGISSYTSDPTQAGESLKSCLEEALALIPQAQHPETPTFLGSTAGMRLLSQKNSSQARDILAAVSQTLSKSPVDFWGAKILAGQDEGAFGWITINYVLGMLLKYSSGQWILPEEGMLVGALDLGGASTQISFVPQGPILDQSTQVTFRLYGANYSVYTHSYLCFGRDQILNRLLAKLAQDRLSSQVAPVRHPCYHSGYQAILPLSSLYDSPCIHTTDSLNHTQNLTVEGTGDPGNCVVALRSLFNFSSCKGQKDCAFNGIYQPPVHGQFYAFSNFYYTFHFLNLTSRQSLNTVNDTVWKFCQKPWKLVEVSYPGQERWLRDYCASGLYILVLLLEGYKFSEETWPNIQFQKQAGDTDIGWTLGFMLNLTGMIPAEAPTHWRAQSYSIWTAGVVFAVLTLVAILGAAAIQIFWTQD
Assay: NTPDase activity measurement (Pi release, malachite green) on protein extracts of COS-7 cells transfected with mouse NTPDase8
Assay type: biochemical
Conditions: substrate of NTPDase8; Woolf-Augustinsson-Hofstee plot; mean ± SEM; read-out: Km,app
Numbers only here, please. The scale is µM.

Previously resolved entries follow.
>  <TEST SMILES>
Nc1ncnc2c1ncn2[C@@H]1O[C@H](COP(=O)(O)OP(=O)(O)O)[C@@H](O)[C@H]1O

>  <UOM>
µM

>  <Km>
41

$$$$
>  <TEST SMILES>
Nc1ncnc2c1ncn2[C@@H]1O[C@H](COP(=O)(O)OP(=O)(O)OP(=O)(O)O)[C@@H](O)[C@H]1O

>  <UOM>
µM

>  <Km>
13

$$$$
>  <TEST SMILES>
O=c1ccn([C@@H]2O[C@H](COP(=O)(O)OP(=O)(O)O)[C@@H](O)[C@H]2O)c(=O)[nH]1

>  <UOM>
µM

>  <Km>
171

$$$$

// below: Km requested for another compound
Please state recorded Km (tested on mouse NTPDase8 (Mus musculus)) of O=c1ccn([C@@H]2O[C@H](COP(=O)(O)OP(=O)(O)OP(=O)(O)O)[C@@H](O)[C@H]2O)c(=O)[nH]1
47

---

target: human NTPDase8 (Homo sapiens, UniProt Q5MY95, L62P); construct: expressed in transfected cells; host or cells: COS-7; assay: Activity on protein extracts from human NTPDase8 transient transfected COS-7 cells; format: biochemical; conditions: substrate hydrolysis by human NTPDase8 protein extracts
Sequence (Q5MY95 whole entry L62P): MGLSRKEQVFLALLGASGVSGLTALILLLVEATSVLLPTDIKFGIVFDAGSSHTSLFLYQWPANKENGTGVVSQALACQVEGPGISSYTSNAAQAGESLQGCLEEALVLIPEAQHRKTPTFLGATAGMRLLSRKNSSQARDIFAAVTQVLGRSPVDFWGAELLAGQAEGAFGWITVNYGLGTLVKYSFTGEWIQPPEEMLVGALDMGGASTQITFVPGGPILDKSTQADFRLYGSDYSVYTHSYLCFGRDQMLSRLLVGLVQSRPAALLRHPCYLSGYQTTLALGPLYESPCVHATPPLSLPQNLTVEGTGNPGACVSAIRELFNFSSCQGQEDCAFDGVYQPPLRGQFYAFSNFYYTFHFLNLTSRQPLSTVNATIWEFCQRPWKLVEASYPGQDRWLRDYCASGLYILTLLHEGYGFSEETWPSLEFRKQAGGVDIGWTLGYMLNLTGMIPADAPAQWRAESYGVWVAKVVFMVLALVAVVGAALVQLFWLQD
METRIC NAME: Activity (nmols Pi/min/mg)
Numbers only here, please. The scale is nmols Pi/min/mg.

Previously resolved entries follow.
>  <TEST SMILES>
Nc1ncnc2c1ncn2[C@@H]1O[C@H](COP(=O)(O)O)[C@@H](O)[C@H]1O

>  <UOM>
nmols Pi/min/mg

>  <Activity>
2

$$$$
>  <TEST SMILES>
O=c1ccn([C@@H]2O[C@H](COP(=O)(O)OP(=O)(O)O)[C@@H](O)[C@H]2O)c(=O)[nH]1

>  <UOM>
nmols Pi/min/mg

>  <Activity>
38

$$$$

Query (compound): Nc1ncnc2c1ncn2[C@@H]1O[C@H](COP(=O)(O)OP(=O)(O)O)[C@@H](O)[C@H]1O ; field requested: Activity
55

Query (compound): O=c1ccn([C@@H]2O[C@H](COP(=O)(O)OP(=O)(O)OP(=O)(O)O)[C@@H](O)[C@H]2O)c(=O)[nH]1 ; field requested: Activity
271

Query (compound): Nc1ncnc2c1ncn2[C@@H]1O[C@H](COP(=O)(O)OP(=O)(O)OP(=O)(O)O)[C@@H](O)[C@H]1O ; field requested: Activity
264

---

compounds and their reported Vmax,app
Target: mouse NTPDase8 (Mus musculus, UniProt Q8K0L2)
Construct: expressed in transfected cells; host or cells: COS-7
Assay: NTPDase activity measurement (Pi release, malachite green) on protein extracts of COS-7 cells transfected with mouse NTPDase8
Format: biochemical
Details: substrate of NTPDase8; Woolf-Augustinsson-Hofstee plot; mean ± SEM
Description: COS-7 cells were transfected in 10 cm plates using Lipofectamine™ (Invitrogen), as previously described (Kaczmarek et al, 1996, JBC, 271:33116–33122). […] Enzyme activity in the protein fractions was determined as previously described (Sévigny et al, 1997, Biochimica Biophysica Acta 1334:73–88) Briefly, enzyme activity was measured at 37° C. in 0.5 ml of the following incubation medium: […] either with 100 mM Tris, pH 7.4 or with 100 mM MES, pH 6.4 or as indicated. […]

>  <COMPOUND>
O=c1ccn([C@@H]2O[C@H](COP(=O)(O)OP(=O)(O)O)[C@@H](O)[C@H]2O)c(=O)[nH]1 [UDP]

>  <STUDY SYSTEM>
mouse NTPDase8 (Mus musculus, UniProt Q8K0L2)

>  <Vmax,app>
1.08 ± 0.06 U/mg of protein

$$$$
>  <COMPOUND>
Nc1ncnc2c1ncn2[C@@H]1O[C@H](COP(=O)(O)OP(=O)(O)O)[C@@H](O)[C@H]1O [ADP]

>  <STUDY SYSTEM>
mouse NTPDase8 (Mus musculus, UniProt Q8K0L2)

>  <Vmax,app>
0.95 ± 0.08 U/mg of protein

$$$$
>  <COMPOUND>
Nc1ncnc2c1ncn2[C@@H]1O[C@H](COP(=O)(O)OP(=O)(O)OP(=O)(O)O)[C@@H](O)[C@H]1O [ATP]

>  <STUDY SYSTEM>
mouse NTPDase8 (Mus musculus, UniProt Q8K0L2)

>  <Vmax,app>
0.82 ± 0.02 U/mg of protein

$$$$

// below: Vmax,app requested for another compound
Query (compound): O=c1ccn([C@@H]2O[C@H](COP(=O)(O)OP(=O)(O)OP(=O)(O)O)[C@@H](O)[C@H]2O)c(=O)[nH]1 [UTP] ; field requested: Vmax,app
1.13 ± 0.02 U/mg of protein
